Just for reference, patent US8871756B2 is where these values come from.

- Tested on: RSV Long strain
- measurement.protocol: Viral cytopathic effect (CPE) assay, anti-RSV activity
- Format: cell-based, Respiratory Syncytial Virus
- condition.parameters: human respiratory syncytial virus, 144 h, RSV Long strain (ATCC); cell viability after 6 days, Cell Counting kit-8
quantity: EC50 (µM)

{"compound": "Cc1ccc2nc(N3CCS(=O)(=O)c4ccccc4C3)cc(NC3(CNC(=O)C(F)(F)F)COC3)c2c1 [Example 70]", "EC50 (µM)": 0.071}

[A] Cc1ccc2nc(N3CCS(=O)(=O)c4ccccc4C3)cc(NCC3(N)CCOCC3)c2c1 [Example 2-3]
[B] Cc1ccc2nc(N3CCS(=O)(=O)c4ccccc4C3)cc(NCC3CCCCN3)c2c1 (stereo not shown) [Example 3-41]
[C] Cc1ccc2nc(N3CCS(=O)(=O)c4ccccc4C3)cc(NC3CNCC34COC4)c2c1 (stereo not shown) [Example 2-6]
Rank by EC50 (largest to smallest). Return value: ordered labels per request.
A, B, C
(A: 2.81 µM, B: 0.071 µM, C: 0.021 µM)

* * *

- System: RSV Long strain
- measurement.protocol: Viral cytopathic effect (CPE) assay, anti-RSV activity
- Type: cell-based, Respiratory Syncytial Virus
- condition.parameters: human respiratory syncytial virus, 144 h, RSV Long strain (ATCC); cell viability after 6 days, Cell Counting kit-8
quantity: EC50 (µM)

{"molecule": "Cc1ccc2nc(N3CCS(=O)(=O)c4ccccc4C3)cc(N3CCCC(N)C3)c2c1 (centres unmarked)", "quantity.unit": "µM", "observed": 2.57}

[P] NCC1(CNc2cc(N3CC[S+]([O-])c4ccccc4C3)nc3ccc(Cl)cc23)COC1 (centres unmarked)
[Q] Cc1ccc2nc(N3CCS(=O)(=O)c4ccc(F)cc4C3)cc(NCC3(N)COC3)c2c1
Short answer wanted: higher EC50, P or Q ? // caller expects the label of the chosen entry
Q
(Q: 0.072 µM, P: 0.005 µM)

[a] Cc1ccc2nc(N3CCS(=O)(=O)c4ccccc4C3)cc(NCC3(N)CC3)c2c1
[b] CCNC1(CNc2cc(N3CCS(=O)(=O)c4ccccc4C3)nc3ccc(C)cc23)COC1
[c] Cc1ccc2nc(N3CCS(=O)(=O)c4ccccc4C3)cc(N(C)CCN)c2c1
Please give the order of these molecules when sorted by EC50, largest value leading. Reply format: the labels, ordered as requested.
c, b, a
(c: 0.161 µM, b: 0.017 µM, a: 0.007 µM)

[1] Cc1ccc2nc(N3CCS(=O)(=O)c4ccccc4C3)cc(NCCN3CCS(=O)(=O)CC3)c2c1
[2] Cc1ccc2nc(N3CCS(=O)(=O)c4ccccc4C3)cc(NCCNCC(F)F)c2c1
Name the one with the greater EC50 value, either 1 or 2 as given. Please reply using the label of the selected record.
1

* * *

- System: RSV Long strain
- measurement.protocol: Viral cytopathic effect (CPE) assay, anti-RSV activity
- Type: cell-based, Respiratory Syncytial Virus
- condition.parameters: human respiratory syncytial virus, 144 h, RSV Long strain (ATCC); cell viability after 6 days, Cell Counting kit-8
quantity: EC50 (µM)

{"compound": "NCCNc1cc(N2CCS(=O)(=O)c3ccccc3C2)nc2ccccc12", "assayed.system": "RSV Long strain", "EC50 (µM)": 0.012}
{"compound": "Cc1ccc2nc(N3CC[S+]([O-])c4ccccc4C3)nc(NCC3(NCc4ccccc4)COC3)c2c1 (stereo not shown)", "assayed.system": "RSV Long strain", "EC50 (µM)": 0.202}
{"compound": "Cc1ccc2nc(N3CCS(=O)(=O)c4ccccc4C3)cc(N3C[C@@H]4[C@@H](N)[C@@H]4C3)c2c1", "assayed.system": "RSV Long strain", "EC50 (µM)": 0.011}
{"compound": "Cc1ccc2nc(N3CCS(=N)(=O)c4ccccc4C3)cc(NCCN)c2c1 (stereo not shown)", "assayed.system": "RSV Long strain", "EC50 (µM)": 0.006}
{"compound": "Cc1ccc2nc(N3CCS(=O)(=O)c4ccccc4C3)cc(OC3CCNC3)c2c1 (stereo not shown)", "assayed.system": "RSV Long strain", "EC50 (µM)": 0.778}
{"compound": "Cc1ccc2nc(N3CC[S+]([O-])c4ccccc4C3)nc(NCC(F)CN)c2c1 (stereo not shown)", "assayed.system": "RSV Long strain", "EC50 (µM)": 0.006}
{"compound": "Cc1ccc2nc(N3CCS(=O)(=O)c4ccccc4C3)cc(N[C@@H]3CCC[C@H]3N)c2c1 (relative stereo)", "assayed.system": "RSV Long strain", "EC50 (µM)": 0.74}
{"compound": "Cc1ccc2nc(N3CCS(=O)(=O)c4ccccc4C3)cc(NC(=O)C(C)(C)N)c2c1", "assayed.system": "RSV Long strain", "EC50 (µM)": 4.66}
{"compound": "NCCNc1cc(N2CCS(=O)(=O)c3ccccc3C2)nc2ccc(N)cc12", "assayed.system": "RSV Long strain", "EC50 (µM)": 0.008}
{"compound": "Cc1ccc2nc(N3CC[S+]([O-])c4ccccc4C3)nc(NCC(F)(F)CN)c2c1 (stereo not shown)", "assayed.system": "RSV Long strain", "EC50 (µM)": 0.023}

[a] Cc1ccc2nc(N3CCC(F)(F)c4ccccc4C3)cc(NCC(C)(C)N)c2c1
[b] COCCOc1ccc2nc(N3CCS(=O)(=O)c4ccccc4C3)cc(NCCCN)c2c1
[c] Cc1ccc2nc(N3CCS(=O)(=O)c4ccccc4C3)cc(N[C@@H]3CCCC[C@H]3N)c2c1 (relative stereo)
[d] Cc1ccc2nc(N3CCS(=O)(=O)c4ccccc4C3)cc(NCC[S+](C)[O-])c2c1 (stereo not shown)
# sort list by recorded EC50, greatest to least Show the ranking through the labels, in the order asked for.
d, c, b, a
(d: 1.94 µM, c: 0.482 µM, b: 0.218 µM, a: 0.072 µM)

[1] Cc1ccc2nc(N3CC[S+]([O-])c4ccccc4C3)cc(NCC(F)(F)CN)c2c1 (stereo not shown)
[2] Cc1ccc2nc(N3CCS(=O)(=O)c4ccccc4C3)cc(NC(=O)CN)c2c1
Look at 1 and 2 . Which one has the lower recorded EC50 number? Returns: label corresponding to the selected item.
2

* * *

- Tested on: RSV Long strain
- measurement.protocol: Viral cytopathic effect (CPE) assay, anti-RSV activity
- Type: cell-based, Respiratory Syncytial Virus
- condition.parameters: human respiratory syncytial virus, 144 h, RSV Long strain (ATCC); cell viability after 6 days, Cell Counting kit-8
- Method: Viral cytopathic effect (CPE) assay: To measure anti-RSV activity of compounds, 96-well plates are seeded with 6×10^3 cells per well in Dulbecco's modified Eagle's medium (DMEM) containing 10% fetal bovine serum (FBS). […] The viability of cells is assessed after 6 days using Cell Counting kit-8 (Dojindo Molecular Technologies). […]
quantity: EC50 (µM)

Worked examples, 4 compounds total:
{"compound": "Cc1ccc2nc(N3CCS(=O)(=O)c4ccccc4C3)cc(N(C)C)c2c1", "assayed.system": "RSV Long strain", "quantity.unit": "µM", "EC50": 9.64}
{"compound": "NCCNc1cc(N2CCCc3ccccc3C2)nc2c(Cl)cccc12", "assayed.system": "RSV Long strain", "quantity.unit": "µM", "EC50": 1.13}
{"compound": "COc1cccc2c1S(=O)(=O)CCN(c1cc(NCC3(N)COC3)c3cc(C)ccc3n1)C2", "assayed.system": "RSV Long strain", "quantity.unit": "µM", "EC50": 0.322}
{"compound": "OCC(O)Cc1cc(N2CCCc3ccccc3C2)nc2ccc(Cl)cc12 (centres unmarked)", "assayed.system": "RSV Long strain", "quantity.unit": "µM", "EC50": 7.27}

[I] Cc1ccc2nc(N3CCS(=O)(=O)c4ccccc4C3)cc(-c3cc[nH]n3)c2c1
[II] Cc1ccc2nc(N3CCS(=O)(=O)c4ccccc4C3)cc(NCCSCCN)c2c1
Of I versus II , which is the one with smaller reported EC50? The response must carry the label of the picked entry.
II
(II: 0.322 µM, I: 8.58 µM)

[1] Cc1ccc2nc(N3CCS(=O)(=O)c4ccccc4C3)cc(N3C[C@@H](O)[C@H](N4CCN(C)CC4)C3)c2c1
[2] NC1(CNc2cc(N3CCS(=O)(=O)c4ccccc4C3)nc3ccccc23)COC1
Please indicate which item has the smaller measured EC50: 1 versus 2 To answer, give the label that identifies your chosen option.
2
(2: 0.023 µM, 1: 3.77 µM)

[1] Cc1ccc2nc(N3CCC(F)(F)c4ccccc4C3)cc(NCC(O)CN)c2c1 (centres unmarked)
[2] Cc1ccc2nc(N3CCC(F)(F)c4ccccc4C3)nc(NCC3(N)COC3)c2c1
[3] Cc1ccc2nc(N3CCS(=O)(=O)c4ccccc4C3)nc(NCC(C)(C)N)c2c1
[4] Cc1ccc2nc(N3CCC(F)(F)c4ccccc4C3)nc(NCC3(N)CS(=O)(=O)C3)c2c1
[5] Cc1ccc2nc(N3CCSc4ccccc4C3)cc(N3CCC(N)C3)c2c1 (centres unmarked)
In this exercise, place the 5 compounds in ascending sequence of their recorded EC50. Return value: ordered labels per request.
2, 3, 1, 5, 4

[P] Cc1ccc2nc(N3CCS(=O)(=O)c4ccccc4C3)cc(NC3CNCC3F)c2c1 (centres unmarked)
[Q] Cc1ccc2nc(N3CCS(=O)(=O)c4ccccc4C3)cc(NCCC3(N)COC3)c2c1
When P and Q are compared, which has the higher number for EC50? // respond with label for picked entry
Q
(Q: 0.234 µM, P: 0.007 µM)

[P] NCC1(CNc2cc(N3CCS(=O)(=O)c4ccccc4C3)nc3ccc(F)cc23)COC1
[Q] Cc1ccc2nc(N3CCS(=O)(=O)c4ccccc4C3)cc(N3C[C@@H]4NCCO[C@@H]4C3)c2c1
Lab note: record which item had the higher EC50, P or Q . Reply with the label of the item you choose.
Q

[1] Cc1ccc2nc(N3CCS(=O)(=O)c4ccccc4C3)cc(NCC(C)(C)N)c2c1
[2] Cc1ccc2nc(N3CCS(=O)(=O)c4ccccc4C3)cc(NC(=O)c3ccccc3)c2c1
[3] O=S1(=O)CCN(c2cc(N[C@@H]3CNC[C@H]3O)c3ccccc3n2)Cc2ccccc21 (relative stereo)
Please produce an ascending ranking of these compounds based on EC50. Reply with the item labels sorted in the order that was asked for.
3, 1, 2

[a] Cc1ccc2nc(N3CCS(=O)(=O)c4ccccc4C3)cc(NCCCO)c2c1
[b] Cc1ccc2nc(N3CCS(=O)(=O)c4ccccc4C3)cc(N(CCO)CCO)c2c1
[c] Cc1ccc2nc(N3CCS(=O)(=O)c4cc(Cl)ccc4C3)cc(NCC(O)CO)c2c1 (centres unmarked)
Please list the entries, largest EC50 first. Output the labels ranked as instructed.
b, c, a

[a] Cc1ccc2nc(N3CCS(=O)(=O)c4ccccc4C3)cc(NC(C)CN)c2c1 (centres unmarked)
[b] N[C@@H]1CN(c2cc(N3CCS(=O)(=O)c4ccccc4C3)nc3ccncc23)C[C@H]1O (relative stereo)
[c] CC(=O)NCCCNc1cc(N2CCS(=O)(=O)c3ccccc3C2)nc2ccc(C)cc12
[d] Cc1ccc2nc(N3CCS(=O)(=O)c4ccccc4C3)cc(NCCCCCN)c2c1
Could you please sort these 4 entries by EC50 from high to low? Put the labels in the order asked and list them.
d, b, a, c
(d: 0.027 µM, b: 0.016 µM, a: 0.01 µM, c: 0.007 µM)
